tested on: Escherichia coli; experiment: Antibacterial activity against Escherichia coli D22 incubated assessed as prevention of visible growth for 20 hrs by two-fold serial microbroth dilution method; assay type: functional
property: MIC (µg/mL)
Return type: number; implicit unit µg/mL.

INPUT: Give Escherichia coli MIC for `O=C(CO[C@H](Cn1nncc1-c1ccccc1)c1ccc(C#Cc2ccccc2)cc1)NO`
OUTPUT: 8

INPUT: Hello, I am looking for reported MIC with Escherichia coli for `O=C(CO[C@@H](CO)c1ccc(C#Cc2ccccc2)cc1)NO` . Could you help?
OUTPUT: 32

INPUT: // lookup MIC | system=Escherichia coli | key= `O=C(CO[C@H](Cn1ccnn1)c1ccc(C#Cc2ccccc2)cc1)NO`
OUTPUT: 1

INPUT: Return MIC measured with Escherichia coli given this molecule: `O=C(CO[C@H](Cn1cc(-c2ccccc2)nn1)c1ccc(OCc2ccccc2)cc1)NO`
OUTPUT: 32

INPUT: Value wanted: MIC (Escherichia coli) of entry `O=C(CO[C@H](Cn1cc(CO)nn1)c1ccc(C#Cc2ccccc2)cc1)NO`
OUTPUT: 4

====

tested on: Escherichia coli; experiment: Antibacterial activity against Escherichia coli D22 incubated assessed as prevention of visible growth for 20 hrs by two-fold serial microbroth dilution method; type: functional
property: MIC

INPUT: Suppose we examine the compound `O=C(CO[C@H](Cn1nncc1CO)c1ccc(C#Cc2ccccc2)cc1)NO` ; what MIC value has been reported?
OUTPUT: 1 µg/mL

INPUT: Form field: reported MIC of `O=C(CO[C@H](Cn1cc(-c2ccccc2)nn1)c1ccc(C#Cc2ccccc2)cc1)NO`
OUTPUT: 0.25 µg/mL

INPUT: Give its MIC value. Item: `O=C(CO[C@H](Cn1ccnn1)c1ccc(OCc2ccccc2)cc1)NO`
OUTPUT: > 64 µg/mL

INPUT: Quick check: MIC of `O=C(CO[C@@H](Cn1ccnn1)c1ccc(C#Cc2ccccc2)cc1)NO` ?
OUTPUT: ≥ 32 µg/mL

INPUT: Entry under review: `C[C@@H](O)[C@H](NC(=O)c1ccc(C#Cc2ccc(CN3CCOCC3)cc2)cc1)C(=O)NO` . Reported MIC?
OUTPUT: 0.031 µg/mL

INPUT: Please give the measured MIC for this compound: `O=C(CO[C@H](CO)c1ccc(C#Cc2ccccc2)cc1)NO`
OUTPUT: 1 µg/mL

INPUT: What does the data say about its MIC? Entry: `O=C(CO[C@@H](Cn1cc(-c2ccccc2)nn1)c1ccc(C#Cc2ccccc2)cc1)NO`
OUTPUT: 32 µg/mL

====

tested on: Escherichia coli; assay: Antibacterial activity against Escherichia coli D22 assessed as zone of growth inhibition at 10 mmol incubated for overnight by disc diffusion method; type: functional; settings: dose 10 mM; time 12 hrs
Assign inhibition zone (IZ) to each entry below.
Give just the number in mm; leave the unit off.

INPUT: Fill blank: measured inhibition zone (IZ) of the compound `O=C(CO[C@@H](CO)c1ccc(C#Cc2ccccc2)cc1)NO` is ____.
OUTPUT: 13

INPUT: Given the entry `O=C(CO[C@H](Cn1nncc1CO)c1ccc(C#Cc2ccccc2)cc1)NO` , report its measured inhibition zone (IZ).
OUTPUT: 29.5

INPUT: Which inhibition zone (IZ) reading was recorded for the compound `O=C(CO[C@H](Cn1ccnn1)c1ccc(OCc2ccccc2)cc1)NO` ?
OUTPUT: 15

INPUT: Can you look up the measured inhibition zone (IZ) of `O=C(CO[C@@H](Cn1ccnn1)c1ccc(C#Cc2ccccc2)cc1)NO` for me?
OUTPUT: 11

INPUT: Which value of inhibition zone (IZ) has been reported for `O=C(CO[C@H](Cn1cc(-c2ccccc2)nn1)c1ccc(C#Cc2ccccc2)cc1)NO` in the records?
OUTPUT: 12.3

INPUT: Given `O=C(CO[C@H](Cn1cc(-c2ccccc2)nn1)c1ccc(OCc2ccccc2)cc1)NO` , state its recorded inhibition zone (IZ).
OUTPUT: 10

INPUT: Which inhibition zone (IZ) is reported for this compound? `O=C(CO[C@H](Cn1cc(CO)nn1)c1ccc(C#Cc2ccccc2)cc1)NO`
OUTPUT: 20.7

INPUT: Fill in the blank: the reported inhibition zone (IZ) of `C[C@@H](O)[C@H](NC(=O)c1ccc(C#Cc2ccc(CN3CCOCC3)cc2)cc1)C(=O)NO` is ____.
OUTPUT: 37.5

INPUT: Which inhibition zone (IZ) is listed for `O=C(CO[C@H](Cn1nncc1-c1ccccc1)c1ccc(C#Cc2ccccc2)cc1)NO` ?
OUTPUT: 10.7

INPUT: May I ask what inhibition zone (IZ) has been recorded for `O=C(CO[C@H](CO)c1ccc(C#Cc2ccccc2)cc1)NO` ?
OUTPUT: 20.5

INPUT: I am curious: what inhibition zone (IZ) value has been reported for `O=C(CO[C@H](Cn1ccnn1)c1ccc(C#Cc2ccccc2)cc1)NO` ?
OUTPUT: 21

INPUT: Which inhibition zone (IZ) reading was recorded for the compound `O=C(CO[C@@H](Cn1cc(-c2ccccc2)nn1)c1ccc(C#Cc2ccccc2)cc1)NO` ?
OUTPUT: 8.7
